# Measured Target: AMPK
# Protocol Text: AMPK activation, enzyme-linked immunosorbent assay
# Format: biochemical
# Run Conditions: Table 4, AMPK activation, ELISA
# Method: Compounds 1-50 of Table 1 were assayed for their ability to activate AMPK using an enzyme-linked immunosorbent assay. Compounds 51-60 of Table 1 were assayed for their ability to activate AMPK using an enzyme-linked immunosorbent assay. Compounds 61-131 of Table 1 were assayed for their ability to activate AMPK using an enzyme-linked immunosorbent assay. Compounds 137-141 and 143-155 of Table 1 were assayed for their ability to activate AMPK using an enzyme-linked immunosorbent assay. […]
Where a name gives a salt, the structure may show the parent alone.
EC50 by entry:

Worked examples, 5 compounds total:
O=C(NC1CCN(Cc2ccccn2)CC1)c1cc2ccc(OC3CCN(c4ccc(OC(F)(F)F)cc4)CC3)cc2o1 [Compound 92]: 500 to 1000 nM
NC(=O)c1ccc(CN2CCC(Oc3ccc4oc(C(=O)NC5CCN(Cc6ccncc6)CC5)cc4c3)CC2)cc1 [Compound 131]: 1000 to 10000 nM
O=C(N[C@H]1CCN(Cc2cccnc2)C1)c1cc2cc(OC3CCN(Cc4ccc(Cl)cc4)CC3)ccc2o1 [Compound 130]: 1000 to 10000 nM
O=C(NC1CCN(Cc2ccccc2)CC1)c1cc2cc(OC3CCN(c4ccc(OC(F)(F)F)cc4)CC3)ccc2o1 [Compound 80, trifluoroacetate salt]: < 100 nM
CC(C)(C)OC(=O)N1CCC(NC(=O)c2cc3cc(OC4CCN(c5ccc(C(F)(F)F)cc5)CC4)ccc3o2)CC1 [Compound 85]: 500 to 1000 nM

Inquiry: # value lookup — system AMPK, readout EC50, item O=C(NC1CCN(Cc2ccncc2)CC1)c1cc2cc(OC3CCN(Cc4ccc(Cl)cc4)CC3)ccc2o1 [Compound 77]
Reply text: 100 to 500 nM
